Just for reference, PubChem BioAssay (NCI) is where these values come from.

Each record here notes measured growth inhibition.
- EXPERIMENT: NCI Yeast Anticancer Drug Screen. Data for the rad18 strain (AID 177)
- CONDITION_DESCRIPTION: S. cerevisiae rad18 mutant growth inhibition; at 33.0 µM; active compounds read high
This is part of a sample that, as a whole, favours compounds with a hit. Of some 79,000 tested, about 15% had one in any assay. The source made the active and inactive calls. No stated cut-off is given here; in the data, active means growth inhibition above about 70%; inactive means the rest.

Below, each entry is followed by its recorded growth inhibition result.
# COMPOUND, growth inhibition
data = [
    ("O=C(NNC(=O)OCC(Cl)(Cl)Cl)OCC(Cl)(Cl)Cl", "13% (inactive)"),
    ("CSc1ccccc1[As](C)C", "99% (active)"),
    ("CN(C)CCC(C(=O)C(Br)Br)(c1ccccc1)c1ccccc1", "99% (active)"),
]

Reported growth inhibition ( Oc1cccnc1[Se] ) = 94% (active)

====

- EXPERIMENT: NCI Yeast Anticancer Drug Screen. Data for the rad50 strain (AID 155);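 further: 0% = growth of vehicle-only cultures of the same strain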
- CONDITION_DESCRIPTION: S. cerevisiae rad50 strain growth inhibition; at 33.0 µM
The panel holds about 79,000 compounds, 15% with a hit somewhere; the sample as a whole holds those more often. Active and inactive are the calls of the source. Rule as the data show it: active = growth inhibition above about 70%; inactive = the rest.
# output must be one of true (1) (active), false (0) (inactive)

# MOLECULE, CLASS_NAME
records = [
    ("Cc1c([N+](=O)[O-])oc2ccc3ccccc3c12", "true (1)"),
    ("CC1(Cl)CC(C)(/C=C/Cl)C(Cl)CC1Cl (stereo unspecified)", "false (0)"),
    ("Cc1c2ccccc2cc2ccccc12", "true (1)"),
]

Any idea what this test logged for CC1CCC2(NC1)OC1CC3C4CCC5CC(OC6OC(CO)C(OC7OC(CO)C(O)C(OC8OCC(O)C(O)C8O)C7OC7OC(CO)C(O)C(O)C7O)C(O)C6O)CCC5(C)C4CCC3(C)C1C2C (stereo unspecified) ?
false (0)

Recorded test outcome, item O=C(O)C1C2CCC(C2)C1c1ccccc1 (stereo unspecified)
false (0)

// return assay outcome for Cc1cc[n+](C2=C(Nc3cccc(C(F)(F)F)c3)C(=O)c3ccccc3C2=O)cc1
false (0)

Fill in: this test's call for COc1cc(C2c3cc4c(cc3[C@@H](Nc3ccc(N)cc3)C3COC(=O)[C@H]23)OCO4)cc(OC)c1O (stereo partly specified) is ___
true (1)

====

- EXPERIMENT: NCI Yeast Anticancer Drug Screen. Data for the mlh1 rad18 strain (AID 175)
- CONDITION_DESCRIPTION: S. cerevisiae mlh1 rad18 strain growth inhibition; at 50.0 µM (retest, dose inferred, filed as 5.0)
- Description: Growth inhibition of yeast strains with defined genetic alterations is measured as a screen for potential anti-cancer activity. Selected strains with alterations in DNA damage repair or cell cycle control were exposed to compounds and growth inhibition was measured relative to vehicle treated controls. The strain used in this assay is mlh1 rad18
The panel holds about 79,000 compounds, 15% with a hit somewhere; the sample as a whole holds those more often. Activity calls are given as the source filed them. Cut-off read from the data, not from the text of the source: active = growth inhibition above about 70%; inactive = the rest.
Output constraint: value belongs to active, inactive

Below, 2 compounds whose answers are already recorded.
# COMPOUND, CLASS_NAME
rows = [
    ("CCC[CH2][Pb]([CH2]CCC)([O]C(C)=O)[O]C(C)=O", "active"),
    ("CCOC(=O)/C(=C\\c1ccc(C(=O)OC)cc1)[Se]c1ccccc1", "inactive"),
]

Check the results log: what was the call for COC1=C(C)C(=O)c2c(c(COC(N)=O)c3n2CC2C3N2C)C1=O (stereo not given) ?
active

Would you mind telling me which call this test gave CC(Cc1ccccc1)[N+](=O)[O-] (stereo not given) ?
inactive

# fetch the recorded call for CCOC(=O)N(C(=O)c1ccc([As]=O)cc1)C(=O)c1ccc([As]=O)cc1 (stereo not given) here
active

What outcome does the record of this test show for O=[N+]([O-])[O-].O=[N+]([O-])[O-].[Au].[Au].c1ccc([P-]c2ccccc2)cc1.c1ccc([P-]c2ccccc2)cc1 ?
active

For this compound, state the assay outcome: CC1=C(CO)C(=O)OC(C(C)C2CCC3C4CC5OC56C(O)C(N5CC5)=CC(=O)C6(C)C4CCC23C)C1 (stereo not given)
active

How was C[n+]1c(/C=C/c2ccc(O)c3ncccc23)[se]c2ccccc21 classified in this test?
active

Assay result, entry O=C1CN2C(Cl)(Cl)C2(c2ccccc2)c2cc(Cl)ccc2N1CC1CC1 (stereo not given) — outcome?
active

Answer briefly: the call reported for C[Si]1(C)CCCCC2(C1)C(=O)NC(=O)NC2=O in this assay.
inactive

Per the records of this test, what outcome belongs to [C](#Cc1ccccc1)[Hg][C]#Cc1ccccc1 ?
active

GET /call?item= O=C1OC2C(O1)C1(Cl)C(Cl)=C(Cl)C2(Cl)C1(Cl)Cl (stereo not given) returns the recorded outcome of this test.
active

Please state the recorded outcome for this compound: CCc1cc2c(cc1O)C(C)(C)CCC2(C)C
inactive

Entry C/C(=N\N=C(/[Se])N1CC2CCC(CC2)C1)c1ccccn1 : call = ?
active

For O=C(c1ccccc1)C1C(c2ccccc2[N+](=O)[O-])N1C1CCCCC1 (stereo not given) , what call appears in the results of this test?
active

Look up the recorded call for CCCCC(CC)CNP(=S)(NCC(CC)CCCC)NCC(CC)CCCC (stereo not given) in this test.
inactive

Outcome logged for CCC1CC2CCC(O2)C(C)C(=O)OC(C)CC2CCC(O2)C(C)C(=O)OC(CC)CC2CCC(O2)C(C)C(=O)OC(C)CC2CCC(O2)C(C)C(=O)O1 (stereo not given) in this assay:
active

What did this assay record as the result for CC(=O)O.[Au].c1ccc([PH+](c2ccccc2)c2ccccc2)cc1 ?
active

// return assay outcome for CCCOc1ccc(/C=C/[N+](=O)[O-])cc1N
active

Test call for this compound, please: COC1=CC(C)(C)C=C([Se][Se]C2=CC(C)(C)C=C(OC)C2=O)C1=O
active
